# assay remarks: Pharmacokinetics and total colon distribution after single oral administration
# Format: in vivo, male C57BL/6 mice
# condition info: male, C57BL/6, mouse, plasma; mice, oral 5 mg/kg, 1 h; measured cpd = dosed cpd (1 as Na salt, 44 as NH4+ salt); read-out: Mean plasma concentration
reported property: concentration at 1 h (ng/mL)
The response must be a number in ng/mL with no trailing unit.

So for `COc1cc(Nc2cc(Oc3ccc(NC(=O)Nc4cc(C(C)(C)C)cc(NS(C)(=O)=O)c4OC)c4ccccc34)ccn2)ccc1P(C)(=O)O` , the logged concentration at 1 h turned out to be 0

----------
Collected solubility thermodynamic at 24 h values appear next to each entry.
# assay remarks: Solubility in fasted-state simulated colonic fluid (FaSSCoF) at pH 6.5
# Type: physicochemical
# condition info: 25 °C, pH 6.5, fassgf or other biorelevant, thermodynamic from solid, pH 6.5 FaSSCoF Solubility (mg/mL) Run 1
# Procedure: The solubilities of compounds of the invention in FaSSCoF at pH 6.5 are determined using a modification of a previously-reported procedure (Vertzoni, M., et al. Pharm. Res. 2010, 27, 2187-2196). […] Test compounds are suspended in the pH 6.5 FaSSCoF medium to give a maximum final concentration of 2-10 mg/mL. […] The filtrates are then diluted as appropriate for injection and quantification by HPLC with reference to a standard. […]
Give the value in µg/mL but do not write µg/mL after it.

Check out these entries, answers already filled in.
INSERT INTO assay_data (compound, unit_info, data_value) VALUES
  ('COc1cc(Nc2cc(Oc3ccc(NC(=O)Nc4cc(C(C)(C)C)cc(NS(C)(=O)=O)c4OC)c4ccccc34)ccn2)ccc1C(=O)N[C@@H](C)CN1CCOCC1 [17(v)]', 'µg/mL', 8),
  ('COc1cc(Nc2cc(Oc3ccc(NC(=O)Nc4cc(C(C)(C)C)cc(NS(C)(=O)=O)c4OC)c4ccccc34)ccn2)cc(OC)c1C(=O)N1CCN(CCN(C)C)CC1 [17(cg)]', 'µg/mL', 2);

Now, please, on to the next compound.
Field solubility thermodynamic at 24 h (entry COc1cc(Nc2cc(Oc3ccc(NC(=O)Nc4cc(C(C)(C)C)cc(NS(C)(=O)=O)c4OC)c4ccccc34)ccn2)ccc1C(=O)NCC(CO)(CO)CO [Example 38] ) reads 14

----------
# assay remarks: Pharmacokinetics and total colon distribution after single oral administration
# Assay type: in vivo, male C57BL/6 mice
# condition info: male, C57BL/6, mouse, total colon; mice, oral 5 mg/kg, 0.5 h; measured cpd = dosed cpd (1, 19, 47 as Na salt, 44 as NH4+ salt); read-out: total colon level
reported property: concentration at 0.5 h (ng/g)
The figure you give is taken to be in ng/g; do not add the unit.

INSERT INTO measurements (structure_notation, unit_info, data_value) VALUES
  ('COc1cc(Nc2cc(Oc3ccc(NC(=O)Nc4cc(C(C)(C)C)cc(NS(C)(=O)=O)c4OC)c4ccccc34)ccn2)cc(OC)c1C(=O)NCCOCCOCCOP(=O)(O)O', 'ng/g', 0);

Okay, next one:
Data point: `COc1cc(Nc2cc(Oc3ccc(NC(=O)Nc4cc(C(C)(C)C)cc(NS(C)(=O)=O)c4OC)c4ccccc34)ccn2)ccc1P(C)(=O)O` ; concentration at 0.5 h = 0

----------
p38 MAPKα (MAPK14) (Homo sapiens (Human)): reported IC50 for various compounds.
Sequence (Q16539 whole entry): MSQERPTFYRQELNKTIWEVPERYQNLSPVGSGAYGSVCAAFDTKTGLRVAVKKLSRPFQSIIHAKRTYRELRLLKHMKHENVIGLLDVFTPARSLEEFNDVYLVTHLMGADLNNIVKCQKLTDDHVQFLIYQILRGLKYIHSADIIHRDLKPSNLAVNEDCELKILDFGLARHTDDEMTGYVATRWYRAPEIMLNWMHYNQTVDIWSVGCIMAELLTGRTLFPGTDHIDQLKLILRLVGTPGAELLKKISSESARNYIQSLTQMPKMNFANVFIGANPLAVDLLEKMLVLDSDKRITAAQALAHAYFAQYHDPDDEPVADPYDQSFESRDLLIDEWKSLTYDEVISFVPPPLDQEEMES
Hi! Could you send only the number? It should be in nM, unit omitted.

INSERT INTO results (compound, tested_system, data_value) VALUES
  ('COc1c(NC(=O)Nc2ccc(Oc3ccnc(Nc4ccc(C(=O)NCCN5CCOCC5)cc4)c3)c3ccccc23)cc(C(C)(C)C)cc1NS(C)(=O)=O [17(u)]', 'p38 MAPKα (MAPK14) (Homo sapiens (Human))', 66);

Let us move to another entry and its IC50.
For reference, reported IC50 for COc1cc(Nc2cc(Oc3ccc(NC(=O)Nc4cc(C(C)(C)C)cc(NS(C)(=O)=O)c4OC)c4ccccc34)ccn2)ccc1C(=O)NCCOCCOCCOP(=O)(O)O [Example 19] stands at 8

----------
# assay remarks: Pharmacokinetics and total colon distribution after single oral administration
# Type: in vivo, male C57BL/6 mice
# condition info: male, C57BL/6, mouse, plasma; mice, oral 5 mg/kg, 8 h; measured cpd = dosed cpd (1 as Na salt, 44 as NH4+ salt); read-out: Mean plasma concentration
reported property: concentration at 8 h (ng/mL)
Unit ng/mL implied. Number only.

Record summary for `COc1cc(Nc2cc(Oc3ccc(NC(=O)Nc4cc(C(C)(C)C)cc(NS(C)(=O)=O)c4OC)c4ccccc34)ccn2)ccc1P(C)(=O)O` : reported concentration at 8 h = 0

----------
# tested system: GSK 3α (Homo sapiens (Human), UniProt P49840)
# Sequence (P49840 whole entry): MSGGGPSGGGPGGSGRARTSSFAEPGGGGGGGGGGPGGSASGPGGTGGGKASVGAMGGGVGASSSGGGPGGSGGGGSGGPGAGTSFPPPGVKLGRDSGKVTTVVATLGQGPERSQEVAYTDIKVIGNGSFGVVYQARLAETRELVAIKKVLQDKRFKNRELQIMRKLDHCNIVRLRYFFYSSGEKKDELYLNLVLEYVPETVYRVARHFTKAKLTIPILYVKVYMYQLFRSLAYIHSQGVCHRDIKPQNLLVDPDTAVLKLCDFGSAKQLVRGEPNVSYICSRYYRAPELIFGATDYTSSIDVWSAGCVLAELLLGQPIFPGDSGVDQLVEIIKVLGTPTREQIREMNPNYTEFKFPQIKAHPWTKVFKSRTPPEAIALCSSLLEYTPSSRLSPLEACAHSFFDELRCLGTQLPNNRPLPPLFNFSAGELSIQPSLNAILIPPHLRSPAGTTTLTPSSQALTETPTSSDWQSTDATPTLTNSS
Quick list: pIC50 per entry.
// field semantics: pIC50 = negative decimal log of concentration (mol/L)

INSERT INTO results (compound, data_value) VALUES
  ('COc1cc(Nc2cc(Oc3ccc(NC(=O)Nc4cc(C(C)(C)C)cc(NS(C)(=O)=O)c4OC)c4ccccc34)ccn2)ccc1C(=O)NCCN1CCC(O)CC1 [17(m)]', 5.56),
  ('COCCOCCOCCS(=O)(=O)c1ccc(Nc2cc(Oc3ccc(NC(=O)Nc4cc(C(C)(C)C)cc(NS(C)(=O)=O)c4OC)c4ccccc34)ccn2)cc1OC [Example 12]', 5.67);

Turning now to a further record.
Item COCCOCCOCCOc1ccc(Nc2cc(Oc3ccc(NC(=O)Nc4cc(C(C)(C)C)cc(NS(C)(=O)=O)c4OC)c4ccccc34)ccn2)cc1C#N [Example 8] was tested on GSK 3α (Homo sapiens (Human), UniProt P49840); the reported pIC50 is 5.42

----------
# assay remarks: Pharmacokinetics and total colon distribution after single oral administration
# Assay type: in vivo, male C57BL/6 mice
# condition info: male, C57BL/6, mouse, blood; mice, 4 h; Ex. 16 measured after oral 5 mg/kg of Ex. 19 (Na salt); read-out: Mean blood concentration
reported property: concentration at 4 h (ng/mL)
Unit ng/mL implied. Number only.

Looking up `COc1cc(Nc2cc(Oc3ccc(NC(=O)Nc4cc(C(C)(C)C)cc(NS(C)(=O)=O)c4OC)c4ccccc34)ccn2)ccc1C(=O)NCCOCCOCCO` , I see its concentration at 4 h listed as 0

----------
The compounds listed here are annotated with their concentration at 24 h.
# assay remarks: Pharmacokinetics and total colon distribution after single oral administration
# Type: in vivo, male C57BL/6 mice
# condition info: male, C57BL/6, mouse, total colon; mice, oral 5 mg/kg, 24 h; measured cpd = dosed cpd (1, 19, 47 as Na salt, 44 as NH4+ salt); read-out: total colon level
Please state the figure in ng/g; there is no need to write the unit.

INSERT INTO results (structure_notation, data_value) VALUES
  ('COc1cc(Nc2cc(Oc3ccc(NC(=O)Nc4cc(C(C)(C)C)cc(NS(C)(=O)=O)c4OC)c4ccccc34)ccn2)ccc1P(C)(=O)O', 0);

Okay, now this compound:
Sure, the documented concentration at 24 h for `COc1cc(Nc2cc(Oc3ccc(NC(=O)Nc4cc(C(C)(C)C)cc(NS(C)(=O)=O)c4OC)c4ccccc34)ccn2)cc(OC)c1C(=O)NCCOCCOCCOP(=O)(O)O` is 0

----------
# assay remarks: Pharmacokinetics and total colon distribution after single oral administration
# Assay type: in vivo, male C57BL/6 mice
# condition info: male, C57BL/6, mouse, total colon; mice, 24 h; Ex. 16 measured after oral 5 mg/kg of Ex. 19 (Na salt); read-out: total colon level
# Protocol: Studies were conducted by Sai Life Sciences (Hinjewadi, Pune, India) to investigate the systemic pharmacokinetics and total colon tissue distribution of compounds of the invention. In particular, pharmacokinetic studies were carried out in male C57BL/6 mice following a single oral administration of the compound.
reported property: concentration at 24 h (ng/g)
Respond numerically; units are ng/g and should not be typed.

Query `COc1cc(Nc2cc(Oc3ccc(NC(=O)Nc4cc(C(C)(C)C)cc(NS(C)(=O)=O)c4OC)c4ccccc34)ccn2)ccc1C(=O)NCCOCCOCCO` yields concentration at 24 h of 0

----------
# tested system: hERG (Homo sapiens (Human), UniProt Q12809)
# Sequence (Q12809 whole entry): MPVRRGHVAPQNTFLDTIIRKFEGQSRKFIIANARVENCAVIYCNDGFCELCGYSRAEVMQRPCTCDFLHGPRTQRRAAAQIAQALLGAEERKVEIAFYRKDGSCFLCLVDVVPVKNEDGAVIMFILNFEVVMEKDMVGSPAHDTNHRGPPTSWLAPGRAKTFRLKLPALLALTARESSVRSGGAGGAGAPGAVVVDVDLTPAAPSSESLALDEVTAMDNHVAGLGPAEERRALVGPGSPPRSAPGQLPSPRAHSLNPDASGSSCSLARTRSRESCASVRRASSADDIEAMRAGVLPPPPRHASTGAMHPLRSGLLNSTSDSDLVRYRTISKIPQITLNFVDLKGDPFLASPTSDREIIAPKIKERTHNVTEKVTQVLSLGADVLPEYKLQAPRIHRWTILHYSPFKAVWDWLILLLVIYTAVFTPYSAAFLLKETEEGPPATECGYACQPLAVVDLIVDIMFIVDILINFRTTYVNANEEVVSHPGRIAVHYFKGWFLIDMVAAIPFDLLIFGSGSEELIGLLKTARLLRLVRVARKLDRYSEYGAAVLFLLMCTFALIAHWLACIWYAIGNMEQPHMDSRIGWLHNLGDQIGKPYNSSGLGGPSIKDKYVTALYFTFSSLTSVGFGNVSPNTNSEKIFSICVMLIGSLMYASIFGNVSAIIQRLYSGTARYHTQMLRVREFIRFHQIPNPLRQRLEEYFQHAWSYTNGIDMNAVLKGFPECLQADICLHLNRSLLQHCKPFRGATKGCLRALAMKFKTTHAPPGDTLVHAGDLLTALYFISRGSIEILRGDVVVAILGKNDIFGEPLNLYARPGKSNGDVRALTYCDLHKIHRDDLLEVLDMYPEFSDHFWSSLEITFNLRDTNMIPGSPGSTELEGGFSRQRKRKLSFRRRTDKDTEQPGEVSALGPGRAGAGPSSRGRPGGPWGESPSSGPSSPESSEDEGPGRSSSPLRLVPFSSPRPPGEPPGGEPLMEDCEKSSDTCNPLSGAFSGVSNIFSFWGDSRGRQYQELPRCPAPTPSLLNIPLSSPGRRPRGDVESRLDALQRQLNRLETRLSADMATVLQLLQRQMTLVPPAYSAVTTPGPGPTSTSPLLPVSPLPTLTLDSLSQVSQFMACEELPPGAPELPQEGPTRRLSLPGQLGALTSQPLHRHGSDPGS
# assay remarks: hERG inhibition, IonWorks patch clamp electrophysiology
# Assay type: cell-based
# condition info: human; hERG, 11 μM; read-out: % Inhibition at Top Concentration
Here the recorded inhibition at 11 µM is given for each entry.
Field format: number, assumed %, no unit text.

Kindly note the recorded inhibition at 11 µM for `COc1cc(Nc2cc(Oc3ccc(NC(=O)Nc4cc(C(C)(C)C)cc(NS(C)(=O)=O)c4OC)c4ccccc34)ccn2)cc(OC)c1C(=O)NCCOCCOCCO` , which is 24

----------
# assay remarks: Solubility in fasted-state simulated colonic fluid (FaSSCoF) at pH 6.5
# Format: physicochemical
# condition info: 25 °C, pH 6.5, fassgf or other biorelevant, thermodynamic from solid, pH 6.5 FaSSCoF Solubility (mg/mL) Run 2
Counter-ions that a name gives are not always drawn.
reported property: solubility thermodynamic at 24 h

INSERT INTO assay_data (compound, data_value) VALUES
  ('COc1cc(Nc2cc(Oc3ccc(NC(=O)Nc4cc(C(C)(C)C)cc(NS(C)(=O)=O)c4OC)c4ccccc34)ccn2)cc(OC)c1C(=O)NC1CCN(C)CC1 [17(bz)]', '26 µg/mL'),
  ('COc1cc(Nc2cc(Oc3ccc(NC(=O)Nc4cc(C(C)(C)C)cc(NS(C)(=O)=O)c4OC)c4ccccc34)ccn2)ccc1C(=O)NCCNC(=O)CCC(=O)O [17(cd) (hydrochloride salt)]', '49 µg/mL'),
  ('COc1cc(Nc2cc(Oc3ccc(NC(=O)Nc4cc(C(C)(C)C)cc(NS(C)(=O)=O)c4OC)c4ccccc34)ccn2)ccc1C(=O)NCCN1CCN(C(=O)CC[C@H](N)C(=O)O)CC1 [17(cl)]', '6 µg/mL'),
  ('COc1cc(Nc2cc(Oc3ccc(NC(=O)Nc4cc(C(C)(C)C)cc(N(CCO)S(C)(=O)=O)c4OC)c4ccccc34)ccn2)ccc1C(=O)NCCN1CC[S+]([O-])CC1 [Example 48]', '10 µg/mL'),
  ('COc1cc(Nc2cc(Oc3ccc(NC(=O)Nc4cc(C(C)(C)C)cc(NS(C)(=O)=O)c4OC)c4ccccc34)ccn2)ccc1S(=O)(=O)CCOCCOCCO [Example 40]', '5 µg/mL');

The compound identified as COc1cc(Nc2cc(Oc3ccc(NC(=O)Nc4cc(C(C)(C)C)cc(NS(C)(=O)=O)c4OC)c4ccccc34)ccn2)ccc1-n1ccccc1=O [Example 31] registered its solubility thermodynamic at 24 h at 3 µg/mL

For COc1cc(Nc2cc(Oc3ccc(NC(=O)Nc4cc(C(C)(C)C)cc(NS(C)(=O)=O)c4OC)c4ccccc34)ccn2)cc(OC)c1C(=O)NCCC1CCN(C)CC1 [17(at)] the compound record lists solubility thermodynamic at 24 h as 9 µg/mL

Briefly, solubility thermodynamic at 24 h measured for COc1cc(Nc2cc(Oc3ccc(NC(=O)Nc4cc(C(C)(C)C)cc(NS(C)(=O)=O)c4OC)c4ccccc34)ccn2)cc(OC)c1C(=O)NCCOCCOCCOP(=O)(O)O [47 (sodium salt)] : > 2000 µg/mL

What the record says about COc1cc(Nc2cc(Oc3ccc(NC(=O)Nc4cc(C(C)(C)C)cc(NS(C)(=O)=O)c4OC)c4ccccc34)ccn2)ccc1C(=O)N[C@H]1C(O)O[C@H](CO)[C@@H](O)[C@@H]1O (some centres unmarked) [17(br)] : solubility thermodynamic at 24 h is 8 µg/mL

solubility thermodynamic at 24 h recorded for this compound, COc1cc(Nc2cc(Oc3ccc(NC(=O)Nc4cc(C(C)(C)C)cc(NS(C)(=O)=O)c4OC)c4ccccc34)ccn2)ccc1C(=O)NCCOP(=O)(O)O [35 (sodium salt)] , is > 4200 µg/mL

Short answer for COc1cc(Nc2nccc(Oc3ccc(NC(=O)Nc4cc(C(C)(C)C)cc(NS(C)(=O)=O)c4OC)c4ccccc34)n2)ccc1C(=O)NCCC1CCN(C)CC1 [17(an)] : solubility thermodynamic at 24 h was 49 µg/mL
